- ASSAY SYSTEM: Torsin-1A-interacting protein 1 (Homo sapiens)
- ASSAY PROCEDURE: LAP1 binders from COS7 cell lysate, primary screen, small-molecule microarray, 635/667 nm fluorescence (AID 1116)
- CONDITION NOTES: COS7-hLAP1 lysate binding, 635 nm fluorescence, higher = more signal
Below, each entry is listed with its recorded composite z-score.

MOLECULE	composite z-score
O=C(NCc1ccccc1)[C@@H]1c2ccccc2C(=O)N(Cc2ccccc2C(F)(F)F)[C@H]1c1ccc(CO)cc1	-0.934
COc1cc2c(cc1O)C(C)N(Cc1ccc([N+](=O)[O-])o1)CC2 (stereo not given)	0.961
CC(C)C(=C=CC[C@H](O)c1cccc(OCCO)c1)C[C@H](O)c1cc(Cl)cc(Cl)c1O	0.488
CN(C)C(=O)[C@@]1(CCS(=O)(=O)c2ccccc2)N=C(c2ccc(OCCCO)cc2)O[C@H]1c1ccccc1	1.84
[N-]=[N+]=NCc1ccccc1C[C@@]1(C(=O)NCc2ccccc2)N=C(c2ccc(OCCCO)cc2)O[C@@H]1c1ccccc1N=[N+]=[N-]	1.45
Cc1ccc(S[C@]2(C(=O)NCC(F)(F)F)CC(=O)N(Cc3ccccc3C(F)(F)F)[C@@H]2c2ccc(CO)cc2I)cc1	-0.531
O=C1C[C@@](C(=O)NCCN2CCOCC2)(c2ccc([N+](=O)[O-])cc2)[C@@H](c2ccc(CO)cc2I)N1C1CCCCC1	0.646
[N-]=[N+]=NCc1ccccc1C[C@@]1(C(=O)N2CCOCC2)N=C(c2ccc(OCCCO)cc2)O[C@@H]1c1ccccc1	2.09
[N-]=[N+]=NCc1ccccc1[C@H]1OC(c2ccc(OCCCO)cc2)=N[C@@]1(CCS(=O)(=O)c1ccccc1)C(=O)N1CCCCC1	1.22
COCCOC(=O)N1C(=O)[C@@]2(c3cc(C#CC4(O)CCCCCC4)ccc31)[C@H](c1ccc(O)cc1)N1[C@H](c3ccccc3)[C@H](c3ccccc3)OC(=O)[C@H]1[C@@H]2C(=O)NC[C@H](O)c1ccccc1	1.6
O=C1c2ccccc2[C@](Cc2ccccc2I)(C(=O)NCC(F)(F)F)[C@H](c2ccc(CO)cc2)N1C1CCCCC1	-0.229
COC1OC[C@]2(C)[C@H]3C4=C(CN2C(=O)OC(C)(C)C)[C@H](C)C(CO)C(CO)C4CC[C@@H]13 (stereo not given in full)	2.14
C=CCNC(=O)[C@H]1[C@@H]2C(=O)O[C@@H](c3ccccc3)[C@@H](c3ccccc3)N2[C@@H](c2ccc(O)cc2)[C@]12C(=O)N(C(=O)OCCOC)c1ccccc12	0.793
Cc1ccccc1C(O)C1C=CC2C(=O)N(C)C(=O)C2N1N(c1ccccc1)c1ccccc1 (stereo not given)	0.0266
COC(=O)[C@@]1(Cc2ccccc2N=[N+]=[N-])N=C(c2ccc(OCCCO)cc2)O[C@H]1c1ccccc1N=[N+]=[N-]	0.435
CCCNC(=O)[C@@]1(c2ccc([N+](=O)[O-])cc2)CC(=O)N(C2CCCCC2)[C@@H]1c1ccc(CO)cc1	1.2
CC=CC(O)C1C=CC2C(=O)N(c3ccccc3)C(=O)C2N1Nc1ccccc1F (stereo not given)	0.0757
O=C1NC(=O)C2C1C=CC(C(O)c1ccco1)N2Nc1ccccn1 (stereo not given)	0.38
CN1C(=O)C2C=CC(C(O)COCc3ccccc3)N(N(c3ccccc3)c3ccccc3)C2C1=O (stereo not given)	0.454
COc1cc(OC)c(C(O)C2C=CC3C(=O)N(C)C(=O)C3N2NC(=O)OC(C)(C)C)cc1Br (stereo not given)	1.26
C=CCC(OC(C)=O)[C@@H]1[C@@H](N(Cc2cccc3ccccc23)C(=O)Cc2ccc(F)cc2)c2cc(OCCCO)ccc2N1C(=O)c1ccc2ccccc2n1 (stereo not given in full)	0.0149
COCCCNC(=O)[C@@]1(Cc2ccccc2N=[N+]=[N-])COC(c2ccc(OCCCO)cc2)=N1	2
COC(=O)[C@@]1(Cc2ccc(F)cc2)[C@H]2c3cc(C(=O)N(C)C)n(CCc4ccc(O)c(OC)c4)c3C[C@H]2CN1C(=O)c1ccccc1	0.279
CCCCCCc1nc(C2CC2)cc2c1[Si](C(C)C)(C(C)C)OC2	-0.476
COc1ccc(C#Cc2ccc3c(c2)[C@]2(C(=O)N3)[C@H](c3ccc(O)cc3)N3[C@H](c4ccccc4)[C@H](c4ccccc4)OC(=O)[C@H]3[C@@H]2C(=O)O)cc1	0.684

###

- ASSAY SYSTEM: Fibroblast growth factor 2 (Homo sapiens)
- ASSAY PROCEDURE: FGF2 binders on small-molecule microarrays, primary screen, biochemical, small-molecule microarray, 635/667 nm fluorescence (AID 1133)
- CONDITION NOTES: small-molecule microarray binding, FGF2, fluorescence 635/667; higher = more signal
Label Met when composite z-score is at or above 0.2; anything below gets Not met.

COMPOUND	CLASS ASSIGNMENT
CC(CO)N1C(=O)[C@@H]2[C@H]3C(=O)OCC=C[C@H]3OC23C=CCN(Cc2ccccc2)C(=O)[C@@H]13 (stereo partly drawn)	Not met
CC(=O)NCCCC[C@@H]1NC(=O)[C@H]2C[C@@H](C(=O)NCCCC[N+](C)(C)C)[C@@H](c3cccc(OCCO)c3)N2C1=O	Met
C=CCN1Cc2ccccc2[C@H]2OC(c3ccc(OCCCO)cc3)=N[C@@]2(CC=C)C1=O	Met
CC(C)(C)N1CC=CC23O[C@@H]4C=CCCOC(=O)C4[C@H]2C(=O)N(CCO)[C@@H]3C1=O (stereo partly drawn)	Met
C=C[C@@H](COC(C)=O)N(C(=O)OC(C)(C)C)S(=O)(=O)c1ccc(Br)cc1	Met
COc1ccc([Si](C)(C)[C@H]2[C@H](CCO)O[C@@]3(C(=O)N(Cc4cccc(N5C(=O)COc6ccccc65)c4)c4ccccc43)[C@@H]2C)cc1	Not met
CN1C(=O)C2C=CC(C(O)COCc3ccccc3)N(N(c3ccccc3)c3ccccc3)C2C1=O (stereo not drawn)	Not met
N#Cc1ccc(NN2C(C(O)c3ccc(F)cc3)C=CC3C(=O)N(c4ccccc4)C(=O)C32)cc1 (stereo not drawn)	Met

###

// composite z-score lookup, one value per entry
- ASSAY SYSTEM: Concanavalin-A (Canavalia ensiformis) (UniProt P02866)
- Sequence (P02866 whole entry, looked up): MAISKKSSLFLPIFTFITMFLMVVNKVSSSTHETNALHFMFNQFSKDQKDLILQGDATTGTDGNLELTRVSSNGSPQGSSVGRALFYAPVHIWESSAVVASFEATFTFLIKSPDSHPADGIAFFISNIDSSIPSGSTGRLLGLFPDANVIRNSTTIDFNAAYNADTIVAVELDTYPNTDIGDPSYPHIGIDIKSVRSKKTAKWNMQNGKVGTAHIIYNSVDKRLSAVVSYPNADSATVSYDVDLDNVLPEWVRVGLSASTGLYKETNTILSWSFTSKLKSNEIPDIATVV
- ASSAY PROCEDURE: ConA small-molecule binders, primary screen, artefact control for SMM control protein annotation, biochemical, small-molecule microarray, Alexa647 label, 635 nm (AID 1127);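 further: z combines 667 nm emission intensity with signal-to-noise across three replicate slides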
- CONDITION NOTES: ConA-A647 binding fluorescence, higher = more signal
PROPERTY NAME: composite z-score

CHEMICAL STRING	PROPERTY NAME	EXPERIMENTAL VALUE
COCCOC(=O)N1C(=O)[C@@]2(c3cc(C#Cc4ccc(OC)cc4)ccc31)[C@H](c1ccc(O)cc1)N1[C@H](c3ccccc3)[C@H](c3ccccc3)OC(=O)[C@H]1[C@@H]2C(=O)N1CCCCCCC1	composite z-score	0.498
COCCCNC(=O)[C@]1(CCS(=O)(=O)c2ccccc2)N=C(c2ccc(OCCCO)cc2)O[C@@H]1c1ccccc1N=[N+]=[N-]	composite z-score	1.18
COC(=O)[C@@]1(Cc2ccccc2)[C@H]2c3cc(C(=O)N(C)C)n(CCc4ccc(O)c(OC)c4)c3C[C@H]2CN1C(=O)c1ccccc1	composite z-score	0.151

###

- ASSAY PROCEDURE: compound binding in COS7 lysate, probe aLAP1, primary screen, cell lysate, small-molecule microarray (AID 1124);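 further: lysate comes from COS7 cells expressing LAP1 and is applied at 0.3 µg/mL; score merges spot fluorescence near 667 nm with signal-to-noise over triplicate slides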
- CONDITION NOTES: probe aLAP1, fluorescence, higher = more signal
Mark criterion met for reported composite z-score of 0.5 or greater; mark criterion not met for anything smaller.

COMPOUND	CLASS ASSIGNMENT
Cc1cc(C)c(C(O)C2C=CC3C(=O)NC(=O)C3N2Nc2ccc(Cl)cc2Cl)c(C)c1 (stereo unspecified)	criterion met
O=C1O[C@@H](c2ccccc2)[C@@H](c2ccccc2)N2[C@@H](c3ccc(O)cc3)[C@]3(C(=O)Nc4ccc(C#CC5(O)CCCCCC5)cc43)[C@@H](C(=O)NC[C@H](O)c3ccccc3)[C@H]12	criterion met
CCOC(=O)c1ccc(NC(=O)O[C@H]2[C@H](OC(=O)Nc3ccc4c(c3)OCO4)[C@@H](OC(=O)Nc3ccc4c(c3)OCO4)[C@@H](OC)O[C@@H]2CO)cc1	criterion met
COC(=O)[C@@]1(Cc2ccc(F)cc2)[C@H]2c3cc(C(=O)N(C)C)n(Cc4cc(F)cc5c4OCOC5)c3C[C@H]2CN1C(=O)c1ccccc1	criterion not met
CCOC(=O)C1=C[C@@H](c2ccccc2)N(S(=O)(=O)c2ccc(C)cc2)[C@H]1c1ccccc1Cl	criterion met

###

Reported z-score values for a set of compounds
- ASSAY PROCEDURE: splicing luciferase reporter signal modulators, primary screen, spliceosome inhibition project, cell-based, HEK293, splice +/- reporter (AID 1101);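 further: HEK293 cells carrying a splicing-competent luciferase reporter gene; test concentration not given here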
- CONDITION NOTES: luminescence, 24 h, higher = more signal, called active from +8 up or from −8 down
PROPERTY NAME: z-score

COMPOUND	PROPERTY NAME	EXPERIMENTAL VALUE
C=C(/C(=C/C[C@H](OC(=O)c1ccncc1)c1ccc(CO)o1)c1cc(C(=O)OC)ccc1OC)C(C)C	z-score	0.174
CC(CO)N1C(=O)[C@@H]2[C@H]3C(=O)OCC=C[C@H]3OC23C=CCN(C(C)(C)C)C(=O)[C@@H]13 (stereo partly specified)	z-score	0.74
C#CCN([C@@H](Cc1ccc(O)cc1)C(=O)OC)[C@@H](/C=C/C1CC1)[C@H](O)Cc1ccccc1	z-score	0.25
COC(=O)[C@@]1(Cc2ccccc2)[C@@H]2C(=CC(=O)[C@H]2CC(=O)C(=O)N(C)C)CN1C(=O)c1ccccc1	z-score	2.93
COCCOC(=O)N1C(=O)[C@@]2(c3cc(C#CC4=CCCCC4)ccc31)[C@H](c1ccc(O)cc1)N1[C@H](c3ccccc3)[C@H](c3ccccc3)OC(=O)[C@H]1[C@@H]2C(=O)N1CCN(c2ncccn2)CC1	z-score	-0.297
COCCOC(=O)N1C(=O)[C@@]2(c3cc(C#CC4=CCCCC4)ccc31)[C@H](c1ccc(OCCO)cc1)N1[C@H](c3ccccc3)[C@H](c3ccccc3)OC(=O)[C@H]1[C@@H]2C(=O)N1CCN(c2ncccn2)CC1	z-score	0.515

All figures here come from PubChem BioAssay.
